tested on: human liver hepatocellular carcinoma cell line (HepG2); test: In vitro cytotoxicity assay (neutral red); format: cell-based; conditions: Homo sapiens, HepG2, 24 h; neutral red, one day incubation, mean ± SD
quantity_name: pIC50
Note on pIC50: it is the negative log10 of concentration, concentration in mol/L.

Please review the entries below; each comes with its answer.
{"given_smiles": "Cc1nccc2c1[nH]c1cc(OCCNC(=O)/C=C/c3cccc(F)c3)ccc12", "measured": 4.89}
{"given_smiles": "COc1ccc2c3ccnc(C)c3n(CCNC(=O)/C=C/c3cccc(Br)c3)c2c1", "measured": 5.54}
{"given_smiles": "COc1ccc2c3ccnc(C)c3n(CCNC(=O)C=Cc3ccccc3)c2c1", "measured": 3.46}
{"given_smiles": "Cc1nccc2c1[nH]c1cc(OCCNC(=O)/C=C/c3ccc(F)cc3)ccc12", "measured": 5.12}
{"given_smiles": "Cc1nccc2c1[nH]c1cc(OCCNC(=O)/C=C/c3ccc(Cl)cc3)ccc12", "measured": 5.11}
{"given_smiles": "COc1ccc2c3ccnc(C)c3n(CCNC(=O)/C=C/c3cccc(F)c3)c2c1", "measured": 4.27}
{"given_smiles": "COc1ccc2c3ccnc(C)c3n(CCNC(=O)/C=C/c3ccc(F)cc3)c2c1", "measured": 4.68}
{"given_smiles": "Cc1nccc2c1[nH]c1cc(OCCNC(=O)C=Cc3ccccc3)ccc12", "measured": 4.89}

Query molecule follows.
Input: Bench note: what pIC50 did `Cc1nccc2c1[nH]c1cc(OCCNC(=O)/C=C/c3ccccc3F)ccc12` show?
Output: 4.79

---

system: human liver hepatocellular carcinoma cell line (HepG2); experiment: In vitro cytotoxicity assay (neutral red); type: cell-based; conditions: Homo sapiens, HepG2, 24 h; neutral red, one day incubation, mean ± SD
Below is a list of entries, each paired with its recorded pIC50 value.
Note on pIC50: it is the negative log10 of concentration, concentration in mol/L.

{"compound": "COc1ccc(/C=C/C(=O)NCCn2c3cc(OC)ccc3c3ccnc(C)c32)cc1 [5f]", "quantity_name": "pIC50", "measured": 4.13}

Input: Bench note: what pIC50 did C/C(=C\c1ccccc1)C(=O)NCCOc1ccc2c(c1)[nH]c1c(C)nccc12 [6h] show?
Output: 4.21

Input: Bench note: what pIC50 did COc1ccc(/C=C/C(=O)NCCOc2ccc3c(c2)[nH]c2c(C)nccc23)cc1 [6f] show?
Output: 4.98

Input: Bench note: what pIC50 did Cc1nccc2c1[nH]c1cc(OCCNC(=O)/C=C/c3cccc(Br)c3)ccc12 [6c] show?
Output: 5.21

Input: Bench note: what pIC50 did COc1ccc2c3ccnc(C)c3n(CCNC(=O)/C=C/c3ccc(Cl)cc3)c2c1 [5e] show?
Output: 5.54
